# Test target: TRβ-LBD / SRC2-2 peptide interaction (Homo sapiens)
# Sequence (P10828 217-461 limits assumed): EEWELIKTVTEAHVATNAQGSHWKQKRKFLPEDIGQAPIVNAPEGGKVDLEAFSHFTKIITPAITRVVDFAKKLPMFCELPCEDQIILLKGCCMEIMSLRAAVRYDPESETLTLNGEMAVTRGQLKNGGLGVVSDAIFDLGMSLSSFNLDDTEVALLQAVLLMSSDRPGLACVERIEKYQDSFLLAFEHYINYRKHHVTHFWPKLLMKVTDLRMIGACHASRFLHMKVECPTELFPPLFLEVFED
# Assay text: Fluorescence polarization
pEC50: −log10 of the molar value.
Value type: pEC50

1. CS(=O)(=O)c1ccc(C(=O)NCC(=O)N(Cc2ccccc2)Cc2ccccc2)cc1[N+](=O)[O-]
2. CS(=O)(=O)c1ccc(C(=O)NCCCC(=O)NC23CC4CC(CC(C4)C2)C3)cc1[N+](=O)[O-]
Lowest pEC50? choose 1 or 2 # reply format: chosen label 2
(2: 4.96, 1: 5.44)

Data origin, for the record: paper PMC3594046
